Examples of molecules with documented remaining activity at 10 µM follow.
Target: P2X7 (Homo sapiens (Human))
Experiment: P2X7 antagonism in human peripheral blood mononuclear cells (PBMCs), IL-1β release after LPS + Bz-ATP (ELISA)
Type: cell-based
Settings: P2X7, Table 2, 10 μM compound, 0.5 mM Bz-ATP, read-out: PBMC 10 μM (% control)
Express the result in % but write the number alone.

Use these answered entries as a reference point.
molecule="Cc1nc2c(c(-c3ccn[nH]3)n1)C[C@@H](C)N(C(=O)c1cccc(Cl)c1Cl)C2 (single isomer, unassigned) [Example 68]" unit_spec=% meas_value=-0.5
molecule="Cc1nc2c(c(-c3ccn(CCF)n3)n1)C[C@@H](C)N(C(=O)c1cccc(C(F)(F)F)c1Cl)C2 (single isomer, unassigned) [Example 124]" unit_spec=% meas_value=18.6

Recorded result, Cc1nc2c(c(-c3ccn[nH]3)n1)C[C@@H](C)N(C(=O)c1ccc(F)cc1Cl)C2 (single isomer, unassigned) [Example 91] , remaining activity at 10 µM: -8.8

----------
The following molecules are listed with their measured remaining activity at 10 µM values.
Molecular target: P2X7 (Homo sapiens (Human), UniProt Q99572)
Sequence (Q99572 whole entry): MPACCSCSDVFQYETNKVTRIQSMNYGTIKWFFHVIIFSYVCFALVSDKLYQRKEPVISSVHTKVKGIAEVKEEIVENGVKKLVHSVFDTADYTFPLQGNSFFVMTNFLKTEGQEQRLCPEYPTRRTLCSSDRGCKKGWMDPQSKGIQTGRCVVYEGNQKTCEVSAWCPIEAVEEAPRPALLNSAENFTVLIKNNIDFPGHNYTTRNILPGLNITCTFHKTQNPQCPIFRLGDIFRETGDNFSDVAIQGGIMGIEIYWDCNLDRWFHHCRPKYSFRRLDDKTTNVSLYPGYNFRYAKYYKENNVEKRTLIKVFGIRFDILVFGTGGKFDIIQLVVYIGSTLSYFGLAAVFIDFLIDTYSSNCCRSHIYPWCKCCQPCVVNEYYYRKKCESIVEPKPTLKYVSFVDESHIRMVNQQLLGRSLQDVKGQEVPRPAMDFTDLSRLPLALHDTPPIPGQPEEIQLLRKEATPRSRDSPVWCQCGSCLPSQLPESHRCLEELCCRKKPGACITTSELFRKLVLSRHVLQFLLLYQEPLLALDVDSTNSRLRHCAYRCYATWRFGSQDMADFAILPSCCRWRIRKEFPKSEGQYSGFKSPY
Experiment: P2X7 antagonism in human peripheral blood mononuclear cells (PBMCs), IL-1β release after LPS + Bz-ATP (ELISA)
Type: cell-based
Conditions: P2X7, Table 3 (additional runs), 10 μM compound, 0.5 mM Bz-ATP, read-out: PBMC 10 μM (% control)
Give the value, in units of %, as a plain number.

molecule="COc1cncc(C(=O)N2Cc3nc(C)nc(-c4ccn[nH]4)c3CC2C)c1 (stereo not shown) [Example 147]" system_under_test="P2X7 (Homo sapiens (Human), UniProt Q99572)" value_kind="remaining activity at 10 µM" meas_value=110
molecule="Cc1nc2c(c(-c3ccn[nH]3)n1)CC(C)N(C(=O)c1cccc(OC(F)(F)F)c1)C2 (stereo not shown) [Example 140]" system_under_test="P2X7 (Homo sapiens (Human), UniProt Q99572)" value_kind="remaining activity at 10 µM" meas_value=52.5

The reported value for Cc1nc2c(c(-c3ccn[nH]3)n1)CC(C)N(C(=O)c1cccc(F)c1Cl)C2 (stereo not shown) [Example 143] in terms of remaining activity at 10 µM is 11.9

Reported remaining activity at 10 µM ( Cc1nc2c(c(-c3ccn[nH]3)n1)CC(C)N(C(=O)c1cccc(OC(F)(F)F)c1F)C2 (stereo not shown) [Example 139] ) = 2

What the record says about Cc1nc2c(c(-c3ccn[nH]3)n1)C[C@H](C)N(C(=O)c1cccc(OC(F)(F)F)c1)C2 (single isomer, unassigned) [Example 142] : remaining activity at 10 µM is 73.9

// sample COc1cccc(C(=O)N2Cc3nc(C)nc(-c4ccn[nH]4)c3CC2C)c1C (stereo not shown) [Example 146] , its remaining activity at 10 µM was -0.8

Memo: Cc1nc2c(c(-c3ccn[nH]3)n1)C[C@H](C)N(C(=O)c1cccc(F)c1Cl)C2 (single isomer, unassigned) [Example 145] , reported remaining activity at 10 µM: 67.4

----------
Target: recombinant rat P2X7 channel (Rattus norvegicus (Rat), UniProt Q64663)
Sequence (Q64663 whole entry): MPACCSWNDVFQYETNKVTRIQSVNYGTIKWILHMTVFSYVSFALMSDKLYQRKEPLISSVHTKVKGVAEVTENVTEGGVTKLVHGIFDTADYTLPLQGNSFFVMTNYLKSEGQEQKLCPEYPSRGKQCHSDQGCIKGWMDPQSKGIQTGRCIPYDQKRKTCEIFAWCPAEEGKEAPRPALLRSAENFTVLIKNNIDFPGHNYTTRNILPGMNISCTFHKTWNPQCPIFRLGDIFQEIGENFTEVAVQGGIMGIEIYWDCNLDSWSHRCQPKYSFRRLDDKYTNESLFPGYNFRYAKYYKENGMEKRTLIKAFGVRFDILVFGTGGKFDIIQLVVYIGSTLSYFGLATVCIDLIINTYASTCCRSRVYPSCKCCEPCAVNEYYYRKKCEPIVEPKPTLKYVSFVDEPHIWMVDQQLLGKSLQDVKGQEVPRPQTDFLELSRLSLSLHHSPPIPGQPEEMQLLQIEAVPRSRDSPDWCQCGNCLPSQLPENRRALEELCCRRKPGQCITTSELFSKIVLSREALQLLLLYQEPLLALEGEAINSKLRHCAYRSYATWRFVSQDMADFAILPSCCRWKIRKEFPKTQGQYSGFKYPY
Test: Ca2+ flux (FLIPR) in 1321N1 cells expressing recombinant rat P2X7 channel
Settings: Table 3 (additional runs); 250 μM BzATP
Method: P2X7 Antagonism in Recombinant Human P2X7 Cells or Recombinant Rat P2X7 Cells: (a) Ca^2+ Flux and (b) Radioligand Binding (a) Ca^2+ flux: 1321N1 cells expressing the recombinant human or rat P2X7 channel was cultured in HyQ DME/(HyClone/Dulbecco's Modified Eagle Medium) high glucose supplemented with 10% Fetal Bovine Serum (FBS) and appropriate selection marker. […] The fluorescence change was measured 180 seconds after adding the agonist.
Each record here notes measured IC50.
Field: numeric (nM). Do not append units.

molecule="Cc1nc2c(c(-c3ccn[nH]3)n1)C[C@@H](C)N(C(=O)c1cccc(F)c1Cl)C2 (single isomer, unassigned)" system_under_test="recombinant rat P2X7 channel (Rattus norvegicus (Rat), UniProt Q64663)" unit_spec=nM meas_value=200

Cc1nc2c(c(-c3ccn[nH]3)n1)C[C@@H](C)N(C(=O)c1cccc(OC(F)(F)F)c1)C2 (single isomer, unassigned) has a reported IC50 of 12400

Consider Cc1nc2c(c(-c3ccn[nH]3)n1)CC(C)N(C(=O)c1cccc(F)c1Cl)C2 (stereo not drawn) . Its measured IC50 is 52.2

The value of IC50 measured for the molecule Cc1nc2c(c(-c3ccn[nH]3)n1)CC(C)N(C(=O)c1cccc(OC(F)(F)F)c1)C2 (stereo not drawn) turned out to be 47300

The value of IC50 measured for the molecule Cc1nc2c(c(-c3ccn[nH]3)n1)CC(C)N(C(=O)c1cccc(OC(F)(F)F)c1F)C2 (stereo not drawn) turned out to be 1460
